Test system: HCT-116
Assay: Cytotoxicity against human HCT116 cells at 30 uM by MTS assay relative to control
Assay type: functional
Calls of active or inactive are those of the source. No cut-off for these calls is given here.
endpoint_label: Activity

Cc1cc2c(=O)[nH]c(CSC(=S)NCc3ccco3)nc2s1	>=50%
Cc1cc2c(=O)[nH]c(CSC(=S)NCc3ccc(Cl)cc3)nc2s1	>=50%
Cc1cc2c(=O)[nH]c(CNC(=S)SCc3ccccc3)nc2s1	inactive
Cc1cc2c(=O)[nH]c(CSC(=S)NCc3ccc(C#N)cc3)nc2s1	>=50%
Cc1ccc(CNC(=S)SCc2nc3sc(C)cc3c(=O)[nH]2)cc1	>=50%

Req: Form entry - test system: HCT-116; read-out: Activity; compound: Cc1cc2c(=O)[nH]c(CSC(=S)NCc3cccnc3)nc2s1
Resp: >=50%

Req: Form entry - test system: HCT-116; read-out: Activity; compound: COc1ccc(CNC(=S)SCc2nc3sc(C)cc3c(=O)[nH]2)cc1
Resp: >=50%

Req: Form entry - test system: HCT-116; read-out: Activity; compound: Cc1cc2c(=O)[nH]c(CNC(=S)SCc3ccc([N+](=O)[O-])cc3)nc2s1
Resp: inactive

Req: Form entry - test system: HCT-116; read-out: Activity; compound: COc1cc(CNC(=S)SCc2nc3sc(C)cc3c(=O)[nH]2)cc(OC)c1OC
Resp: >=50%

Req: Form entry - test system: HCT-116; read-out: Activity; compound: Cc1cc2c(=O)[nH]c(CNC(=S)SCc3ccc(Cl)cc3)nc2s1
Resp: inactive

----------
System: HT-29
Experiment: Cytotoxicity against human HT-29 cells at 30 uM by MTS assay
Format: functional, cell-based
Activity calls are given as the source filed them. The calls are words filed in the database; no cut-off is given here.
endpoint_label: Activity

Cc1cc2c(=O)[nH]c(CSC(=S)NCc3ccccc3F)nc2s1	inactive
COc1ccc(CNC(=S)SCc2nc3sc(C)cc3c(=O)[nH]2)cc1	inactive
Cc1cc2c(=O)[nH]c(CSC(=S)NCc3ccncc3)nc2s1	inactive

----------
Test system: HCT-116
Test: Cytotoxicity against human HCT116 cells at 30 uM by MTS assay relative to control
Format: functional
Active and inactive are the calls of the source. The calls are words filed in the database; no cut-off is given here.
endpoint_label: Activity

CCOC(=O)c1ccc(CSC(=S)NCc2nc3sc(C)cc3c(=O)[nH]2)cc1	inactive
Cc1cc2c(=O)[nH]c(CSC(=S)NCc3ccccc3F)nc2s1	>=50%
COc1cccc(CSC(=S)NCc2nc3sc(C)cc3c(=O)[nH]2)c1	inactive
Cc1cc2c(=O)[nH]c(CSC(=S)NCc3ccc(Cl)cc3Cl)nc2s1	>=50%

Now turn to the next compound.
Req: What value of Activity has been reported for the following compound? Cc1cc2c(=O)[nH]c(CNC(=S)SCc3ccc(C#N)cc3)nc2s1
Resp: inactive

----------
Test system: HCT-116
Experiment: Cytotoxicity against human HCT116 cells at 30 uM by MTS assay relative to control
Assay type: functional
Calls of active or inactive are those of the source. No cut-off for these calls is given here.
endpoint_label: Activity

Here's what some known entries look like.
COc1ccc(CNC(=S)SCc2nc3sc(C)cc3c(=O)[nH]2)c(OC)c1	>=50%
Cc1cc2c(=O)[nH]c(CSC(=S)NCc3ccc(Br)cc3)nc2s1	>=50%
Cc1cc2c(=O)[nH]c(CSC(=S)NCc3ccc([N+](=O)[O-])cc3)nc2s1	>=50%
Cc1cc2c(=O)[nH]c(CSC(=S)NCc3ccc(F)cc3F)nc2s1	>=50%
Cc1cc2c(=O)[nH]c(CSC(=S)NCc3cccs3)nc2s1	>=50%

Req: What value of Activity has been reported for the following compound? Cc1ccc(CSC(=S)NCc2nc3sc(C)cc3c(=O)[nH]2)cc1
Resp: inactive

Req: What value of Activity has been reported for the following compound? Cc1cc2c(=O)[nH]c(CNC(=S)SCc3ccc(F)cc3)nc2s1
Resp: inactive

Req: What value of Activity has been reported for the following compound? COc1ccc(CSC(=S)NCc2nc3sc(C)cc3c(=O)[nH]2)cc1
Resp: inactive

Req: What value of Activity has been reported for the following compound? Cc1cc2c(=O)[nH]c(CSC(=S)NCc3ccccc3)nc2s1
Resp: >=50%

Req: What value of Activity has been reported for the following compound? Cc1cc2c(=O)[nH]c(CNC(=S)SCc3ccc(Br)cc3)nc2s1
Resp: inactive

Req: What value of Activity has been reported for the following compound? COc1ccccc1CSC(=S)NCc1nc2sc(C)cc2c(=O)[nH]1
Resp: inactive
